FYI, the data here is from the MegaScale stability set (Tsuboyama et al. 2023).

B1: EEHEE_rd4_0647 (parent)
chain: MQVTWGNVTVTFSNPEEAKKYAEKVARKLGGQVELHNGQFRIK

- Variants of: B1
- protocol-notes: folding stability dG (cDNA display proteolysis); higher = more stable
- conditions-used: PBS, room temperature
Assign t to entries whose folding stability dG meets or exceeds 2 kcal/mol; assign f to the rest.

A selection of reference data follows.
>  <variant-label>
L29P

>  <class-name>
f

$$$$
>  <variant-label>
A18Y

>  <class-name>
f

$$$$
>  <variant-label>
V33L

>  <class-name>
t

$$$$
>  <variant-label>
G30E

>  <class-name>
f

$$$$
>  <variant-label>
R27W

>  <class-name>
t

$$$$
>  <variant-label>
H36M

>  <class-name>
t

$$$$
>  <variant-label>
Q32G

>  <class-name>
f

$$$$
>  <variant-label>
E23Q

>  <class-name>
t

$$$$

QUERY: I'd appreciate it if you could say whether T4A has folding stability dG at least equal to 2 kcal/mol.
RESULT: t

QUERY: I'd appreciate it if you could say whether L29M has folding stability dG at least equal to 2 kcal/mol.
RESULT: t
